Collected literature values of IC50 measured for MAPKAPK5 (Homo sapiens, UniProt Q8IW41).

# structure.smiles, IC50
measured = [
    ("CC(C)N(CCNC(=O)c1ccc(Nc2ncc(-c3cn[nH]c3)n3ncnc23)cc1)C(C)C", "501 to 1000 nM"),
    ("CC(C)N1CCN(c2ccc(Nc3ncc(-c4csc(C(N)=O)c4)n4ncnc34)cc2)CC1", "1 to 100 nM"),
    ("CN1CCN(c2ccc(Nc3ncc(-c4ccc(C(N)=O)cc4)n4ccnc34)cc2F)CC1", "> 1000 nM"),
    ("NC(=O)c1ccc(-c2cnc(Nc3ccc(N4CCCCC4)cc3)c3nccn23)cc1", "> 1000 nM"),
    ("Cc1nc(-c2cnc(Nc3ccc(N4CCOCC4)cc3)c3nccn23)n[nH]1", "> 1000 nM"),
    ("CCOc1cc(-c2cnc(Nc3ccc(N4CCOCC4)cc3)c3nccn23)ccn1", "> 1000 nM"),
    ("CC(C)(C)N1C[C@@H]2C[C@H]1CN2c1ccc(Nc2ncc(-c3coc(C(N)=O)c3)n3ncnc23)cc1", "0.01 to 100 nM"),
    ("CC(C)N1CCN(c2ccc(Nc3ncc(-c4csc5c(C(N)=O)cccc45)n4ncnc34)cc2)CC1", "> 1000 nM"),
]

----------
Assay read-out IC50 on MAPKAPK5 (Homo sapiens, UniProt Q8IW41); records merged from the literature.

# structure.smiles, IC50
measured = [
    ("CCN(CC)CCNC(=O)c1ccc(Nc2ncc(-c3cnc(O)nc3O)n3ccnc23)cc1", "> 1 µM"),
    ("NC(=O)c1cccc(Nc2ncc(-c3cn[nH]c3)n3ccnc23)c1", "> 1 µM"),
    ("Cc1[nH]ncc1-c1cnc(Nc2ccc(N3CCN(C)CC3)cc2)c2ncnn12", "> 1 µM"),
    ("NC(=O)c1cc(-c2cnc(Nc3ccc(N4CCOCC4)nc3)c3ncnn23)cs1", "0.101 to 0.5 µM"),
    ("CC(C)N1CCN(C(=O)c2cccc(Nc3ncc(-c4cn[nH]c4)n4ncnc34)c2)CC1", "0.501 to 1 µM"),
    ("Clc1cc(N2CCOCC2)ccc1Nc1ncc(-c2cn[nH]c2)n2ncnc12", "> 1 µM"),
    ("CN(C)c1cc(-c2cnc(Nc3ccc(N4CCOCC4)cc3)c3nccn23)ccn1", "> 1 µM"),
    ("Cc1nc(Nc2ncc(-c3ccc4c(c3)CNC4=O)n3ccnc23)sc1C(=O)N(C)C", "0.101 to 0.5 µM"),
]

----------
pIC50: −log10 of the molar value.
Collected pIC50 for MAPKAPK5 (Homo sapiens) across several studies; molecules listed below.

# structure.smiles, pIC50
measured = [
    ("CC(C)N1CCC(c2ccc(Nc3ncc(-c4csc(C(N)=O)c4)n4ncnc34)cc2)CC1", "7.00 to 9.00"),
    ("O=C1NCc2cc(-c3cnc(Nc4ccc(F)cc4F)c4ncnn34)ccc21", "< 6.00"),
    ("CC(C)Oc1ccc(Nc2ncc(-c3ccc(C(N)=O)c(F)c3)n3ccnc23)cc1", "< 6.00"),
    ("NC(=O)c1ccc(-c2cnc(Nc3ccc(-n4cc(-c5ccccn5)nn4)cc3)c3nccn23)cc1", "< 6.00"),
    ("CNC(=O)c1nc(-c2cnc(Nc3ccc(N4CCN(C(C)C)CC4)cc3)c3ncnn23)cs1", "< 6.00"),
    ("CCN(CCO)c1ccc(Nc2ncc(-c3cccc(C(N)=O)c3)n3ccnc23)cc1", "< 6.00"),
    ("Cc1oc(-c2cnc(Nc3ccc(N4CCOCC4)cc3)c3nccn23)cc1C(N)=O", "< 6.00"),
    ("COC[C@@H]1CCCN1C(=O)c1ccc(Nc2ncc(-c3cn[nH]c3)n3ncnc23)cc1", "< 6.00"),
    ("CCN(CC)CCNC(=O)c1ccc(Nc2ncc(-c3cncnc3)n3ccnc23)cc1", "< 6.00"),
    ("Cc1[nH]ncc1-c1cnc(Nc2ccc(N3CCOCC3)cc2)c2nccn12", "6.00 to 6.30"),
    ("CN1CCC(COc2ccc(Nc3ncc(-c4ccc(C(N)=O)c(F)c4)n4ccnc34)cc2)CC1", "< 6.00"),
    ("CC(C)N1CCN(c2ccc(Nc3ncc(-c4coc(C(N)=O)c4)n4ccnc34)cc2)CC1", "6.30 to 7.00"),
    ("NC(=O)c1cc(Nc2ncc(-c3cn[nH]c3)n3ncnc23)ccc1N1CCOCC1", "< 6.00"),
    ("Nc1ncc(-c2cnc(Nc3ccc(N4CCOCC4)cc3)c3ncnn23)cn1", "< 6.00"),
    ("CCN1CCN(C(=O)c2ccc(Nc3ncc(-c4cn[nH]c4)n4ncnc34)cc2)CC1", "6.00 to 6.30"),
    ("O=C(O)c1cnc(Nc2ccc(N3CCOCC3)cc2)c2nccn12", "< 6.00"),
    ("O=C1NCc2oc(-c3cnc(Nc4ccc(N5CCOCC5)cc4)c4ncnn34)cc21", "6.30 to 7.00"),
    ("c1cn2c(-c3cn[nH]n3)cnc(Nc3ccc(N4CCOCC4)cc3)c2n1", "< 6.00"),
    ("Cc1cnc2c(Nc3ccc(N4CCOCC4)cc3)ncc(-c3ccc(C(N)=O)cc3)n12", "< 6.00"),
    ("CCN(CC)CCNC(=O)c1ccc(Nc2ncc(-c3ccc(O)cc3C(F)(F)F)n3ccnc23)cc1", "< 6.00"),
    ("CN1CCN(c2ccc(Nc3ncc(-c4ccc(C(N)=O)cn4)n4ccnc34)cc2)CC1", "< 6.00"),
    ("c1nc2c(Nc3ccc(N4CCNCC4)cc3)ncc(-c3cn[nH]c3)n2n1", "6.00 to 6.30"),
    ("Cc1cc(-c2cnc(Nc3ccc(N4CCOCC4)cc3)c3nccn23)cc(=O)[nH]1", "< 6.00"),
    ("c1nc2c(Nc3ccc(N4CCOCC4)cc3)ncc(-c3ccc4[nH]ncc4c3)n2n1", "< 6.00"),
    ("CS(=O)(=O)Nc1ccc(Nc2ncc(-c3cn[nH]c3)n3ccnc23)cc1", "6.00 to 6.30"),
    ("NC(=O)c1cc(-c2cnc(Nc3ccc(N4CCN(CC5CC5)CC4)cc3)c3ncnn23)cs1", "6.30 to 7.00"),
    ("NC(=O)c1cccc2c(-c3cnc(Nc4ccc(N5CCOCC5)cc4)c4ncnn34)csc12", "< 6.00"),
    ("Cc1cc(C(N)=O)ccc1-c1cnc(Nc2ccc(N3CCN(C)CC3)cc2)c2nccn12", "< 6.00"),
    ("CCOc1cc(-c2cnc(Nc3ccc(N4C[C@@H]5C[C@H]4CN5C(C)C)cc3)c3nccn23)ccn1", "< 6.00"),
    ("O=C1NCc2cc(-c3cnc(Nc4ccc(N5CCOCC5)nc4)c4ncnn34)ccc21", "7.00 to 9.00"),
    ("O=C(Cc1ccccc1)Nc1ccc(Nc2ncc(-c3cn[nH]c3)n3ccnc23)cn1", "< 6.00"),
    ("CN(C)Cc1cc(Nc2ncc(-c3cn[nH]c3)n3ccnc23)ccc1N1CCOCC1", "< 6.00"),
    ("CCN(CCO)c1ccc(Nc2ncc(-c3cn[nH]c3)n3ccnc23)c(C)c1", "< 6.00"),
]

----------
What follows is literature data on pIC50 for MAPKAPK5 (Homo sapiens, UniProt Q8IW41).
pIC50: −log10 of the molar value.
recorded.endpoint: pIC50

# structure.smiles, assayed.system, value.measured
data = [
    ("CN1CCN(c2ccc(Nc3ncc(-c4cn[nH]c4C(F)(F)F)n4ccnc34)cc2)CC1", "MAPKAPK5 (Homo sapiens, UniProt Q8IW41)", "< 6.00"),
    ("CC(C)N1CCC(c2ccc(Nc3ncc(-c4cn[nH]c4)n4ncnc34)cn2)CC1", "MAPKAPK5 (Homo sapiens, UniProt Q8IW41)", "< 6.00"),
    ("NC(=O)c1ccc(Nc2ncc(-c3cn[nH]c3)n3ccnc23)nc1", "MAPKAPK5 (Homo sapiens, UniProt Q8IW41)", "< 6.00"),
    ("Cc1cnc(Nc2ncc(-c3ccc4c(c3)CNC4=O)n3ccnc23)s1", "MAPKAPK5 (Homo sapiens, UniProt Q8IW41)", "6.00 to 6.30"),
    ("O=C1CCc2cc(-c3cnc(Nc4ccc(N5CCOCC5)cc4)c4ncnn34)ccc2N1", "MAPKAPK5 (Homo sapiens, UniProt Q8IW41)", "< 6.00"),
    ("COC(=O)c1cccc(Nc2ncc(-c3cn[nH]c3)n3ccnc23)c1", "MAPKAPK5 (Homo sapiens, UniProt Q8IW41)", "< 6.00"),
    ("CN1CCN(c2ccc(Nc3ncc(-c4ccc(C(N)=O)cc4)n4ccnc34)cc2)CC1", "MAPKAPK5 (Homo sapiens, UniProt Q8IW41)", "6.00 to 6.30"),
    ("O=C1NCc2cc(-c3cnc(Nc4ccc(N5CCOCC5)cn4)c4nccn34)ccc21", "MAPKAPK5 (Homo sapiens, UniProt Q8IW41)", "6.30 to 7.00"),
    ("O=C(N[C@@H]1CCN(Cc2ccccc2)C1)c1ccc(Nc2ncc(-c3ccc4c(c3)CNC4=O)n3ncnc23)cc1", "MAPKAPK5 (Homo sapiens, UniProt Q8IW41)", "6.30 to 7.00"),
    ("CC(C)N1CCN(c2ccc(Nc3ncc(-c4cc5c(o4)CNC5=O)n4ccnc34)cc2)CC1", "MAPKAPK5 (Homo sapiens, UniProt Q8IW41)", "6.30 to 7.00"),
    ("CN1CCN(S(=O)(=O)c2ccc(Nc3ncc(-c4cn[nH]c4)n4ccnc34)cc2)CC1", "MAPKAPK5 (Homo sapiens, UniProt Q8IW41)", "< 6.00"),
    ("O=C1NCc2cc(-c3cnc(Nc4ccc(N5CCOCC5)cc4Cl)c4ncnn34)ccc21", "MAPKAPK5 (Homo sapiens, UniProt Q8IW41)", "< 6.00"),
    ("O=C1NCc2cc(-c3cnc(Nc4ccc(N5CCOCC5)cc4F)c4ncnn34)ccc21", "MAPKAPK5 (Homo sapiens, UniProt Q8IW41)", "< 6.00"),
    ("CN1CCN(c2ccc(Nc3ncc(-c4ccc(C(N)=O)cc4F)n4ncnc34)cc2)CC1", "MAPKAPK5 (Homo sapiens, UniProt Q8IW41)", "< 6.00"),
    ("CC(C)CNC(=O)c1ccc(Nc2ncc(-c3cn[nH]c3)n3ncnc23)cc1", "MAPKAPK5 (Homo sapiens, UniProt Q8IW41)", "< 6.00"),
    ("CC(C)N1CCN(c2ccc(Nc3ncc(-c4cn[nH]c4)n4ccnc34)cn2)CC1", "MAPKAPK5 (Homo sapiens, UniProt Q8IW41)", "6.00 to 6.30"),
    ("CCN(CC)CCNC(=O)c1ccc(Nc2ncc(C#N)n3ccnc23)cc1", "MAPKAPK5 (Homo sapiens, UniProt Q8IW41)", "< 6.00"),
]
